Ref: the supplement of paper PMC10567573

B1: POMT2 (parent)
chain: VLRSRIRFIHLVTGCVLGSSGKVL

variants of: B1; assay: protein stability index of a GFP-peptide fusion (GPS, HEK-293T) (PSI 1-6); higher = more stable; conditions: c terminus: a fixed tail appended;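 note: lentivirally expressed fusions sorted by FACS into six bins by GFP to DsRed ratio, PSI derived from sequencing read proportions per bin multiplied by bin number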
Endpoint label: protein stability index
Numbers only.

* VLRSRIRFIHLVTGCVLGCSGKVL [S19C] | 2.51
* VLRSRIRFIHLVTGCPLGSSGKVL [V16P] | 4.02
* VLRSRIRFIHLVTGCVLGSSGKML [V23M] | 2.32

For each listed entry, give its protein stability index.
1. VLLSRIRFIHLVTGCVLGSSGKVL [R3L]
2. VLRSRIRFIWLVTGCVLGSSGKVL [H10W]
3. VLRSRIRFIHLVTGCVRGSSGKVL [L17R]
4. VLRSRIRFIHLVTGCVLDSSGKVL [G18D]
5. VLRSRIRFIHDVTGCVLGSSGKVL [L11D]
6. VLRSRIRFIHLLTGCVLGSSGKVL [V12L]
7. VLRSRIRFQHLVTGCVLGSSGKVL [I9Q]

stdout:
1. 2.04
2. 2.63
3. 2.35
4. 1.67
5. 2.48
6. 2.13
7. 2.87

Lab note: each variant below needs its protein stability index filled in.
1. VLRSRIRFIHLVTGCVVGSSGKVL [L17V]
2. VLRSRIRFWHLVTGCVLGSSGKVL [I9W]
3. VLRSRIRFIHLVTGCVHGSSGKVL [L17H]

stdout:
[2.1, 1.71, 2.75]

State recorded protein stability index for all listed variants.
1. VLRSRIRFILLVTGCVLGSSGKVL [H10L]
2. RLRSRIRFIHLVTGCVLGSSGKVL [V1R]
3. VLRSRIRFIHCVTGCVLGSSGKVL [L11C]
4. VLRSRIRFIHLVTPCVLGSSGKVL [G14P]

stdout:
1: 1.87; 2: 1.96; 3: 3.74; 4: 2.97
